Test system: Triticum aestivum (TRZAS)
Format: in vivo
Settings: pre-emergence, 320 g/ha, crop plant compatibility, in comparison to untreated controls
endpoint label: Pre-emergence action against TRZAS in % (%)

These recorded examples may help you get a feel for the data.
• O=C(CSc1nn(-c2ccccn2)c(-c2cncc(F)c2)c1Br)NS(=O)(=O)c1ccccc1 = 10
• CCOC(=O)COc1nn(-c2ccccn2)c(-c2cncc(F)c2)c1Cl = 20
• O=C(O)C1CCN(C(=O)COc2nn(-c3ccccn3)c(-c3ccc(F)nc3)c2Br)CC1 = 0

I. O=C(O)C1CCN(C(=O)COc2nn(-c3ccccn3)c(-c3cncc(F)c3)c2Br)C1 (racemic)
II. COC(=O)C1CCN(C(=O)COc2nn(-c3ccccn3)c(-c3ccc(F)nc3)c2Br)C1 (stereo not shown)
Given the two records I and II , choose the one whose Pre-emergence action against TRZAS in % value is lower. Pick one; state its label.
I
(I: 0%, II: 10%)

====

System: Amaranthus retroflexus (AMARE)
Assay: Post-emergence herbicidal action against AMARE
Format: in vivo
Settings: 80 g/ha, visual rating about 3 weeks after treatment vs untreated controls (100% = plants have died, 0% = like control plants)
compounds and their reported Post-emergence action against AMARE in %
Supply the numeric figure in %, leaving out any unit text.

Specify reported Post-emergence action against AMARE in % for the compound shown: COC(=O)CCOC(=O)COc1nn(-c2ccccn2)c(-c2cncc(F)c2)c1Br
80

Specify reported Post-emergence action against AMARE in % for the compound shown: CCOC(=O)[C@@H](C)Oc1nn(-c2ncccc2F)c(-c2ccc(F)nc2)c1C1CC1
80

Specify reported Post-emergence action against AMARE in % for the compound shown: CCOC(=O)CSc1nn(-c2ccccn2)c(-c2cncc(F)c2)c1I
80

Specify reported Post-emergence action against AMARE in % for the compound shown: COC(=O)[C@@H](C)Oc1nn(-c2nc(F)ccc2F)c(-c2cncc(F)c2)c1C1CC1
80

Specify reported Post-emergence action against AMARE in % for the compound shown: CCOC(=O)CN(C)S(=O)(=O)NC(=O)COc1nn(-c2ncccc2F)c(-c2ccc(F)nc2)c1Br
80

====

molecules and their reported Post-emergence action against SETVI in %
Tested on: Setaria viridis (SETVI)
Assay: Post-emergence herbicidal action against SETVI
Assay type: in vivo
Settings: dosage 320 g/ha
Supply the numeric figure in %, leaving out any unit text.

These recorded examples may help you get a feel for the data.
* CCOC(=O)COc1nn(-c2ncccc2C)c(-c2cncc(F)c2)c1Br [Example I-211] | 80
* COC(=O)C(C)COC(=O)[C@@H](C)Oc1nn(-c2ccccn2)c(-c2ccc(F)nc2)c1Cl (some centres unmarked) [Example I-267] | 90
* COC(=O)CNC(=O)COc1nn(-c2cccc(C)n2)c(-c2ccc(F)nc2)c1Br [Example I-357] | 80
* COC(=O)COc1nn(-c2ncccc2F)c(-c2cncc(F)c2)c1C1CC1 [Example I-167] | 80
* CCOC(=O)[C@@H](C)Oc1nn(-c2ncccc2F)c(-c2ccc(F)nc2)c1F [Example I-320] | 90

Specify reported Post-emergence action against SETVI in % for the molecule shown: CCOC(=O)COc1nn(-c2ccncc2F)c(-c2ccc(F)nc2)c1Br [III-29]
90

Specify reported Post-emergence action against SETVI in % for the molecule shown: CCCOC(=O)COc1nn(-c2ncccc2F)c(-c2ccc(F)nc2)c1C1CC1 [Example I-344]
90

Specify reported Post-emergence action against SETVI in % for the molecule shown: CCOC(=O)COc1nn(-c2ncccc2C)c(-c2cncc(F)c2)c1Cl [Example I-181]
90
